B1: STK38L (parent)
chain: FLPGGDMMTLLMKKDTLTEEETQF

variants of: B1; test: protein stability index of a GFP-peptide fusion (GPS, HEK-293T) (PSI 1-6); higher = more stable; details: c terminus: a fixed tail appended;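 further: lentivirally expressed fusions sorted by FACS into six bins by GFP to DsRed ratio, PSI derived from sequencing read proportions per bin multiplied by bin number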
reported_property: protein stability index

T22N; 2.31
M7E; 4.77
E19L; 1.62
M8E; 4.21
E21M; 1.98

For the variant K13R , give its reported protein stability index.
2.21

For the variant T9I , give its reported protein stability index.
2.19

For the variant G4Q , give its reported protein stability index.
3.36

For the variant G5T , give its reported protein stability index.
3.44

For the variant T16G , give its reported protein stability index.
2.43

For the variant F24L , give its reported protein stability index.
3.02

For the variant T16W , give its reported protein stability index.
1.96

For the variant M12T , give its reported protein stability index.
3.49

For the variant E20M , give its reported protein stability index.
1.89

For the variant G4V , give its reported protein stability index.
3.39

For the variant T18A , give its reported protein stability index.
2.1

For the variant T22M , give its reported protein stability index.
1.97

For the variant L17E , give its reported protein stability index.
3.35

For the variant L17H , give its reported protein stability index.
2.26

These entries and their values trace back to the supplement of paper PMC10567573.
